molecular target: Thymidylate synthase (Mus musculus, UniProt P07607); experiment: Inhibition of thymidylate synthase purified from mouse L1210 leukemia cells that overproduce thymidylate synthase (TS); type: cell-free
Sequence (P07607 whole entry): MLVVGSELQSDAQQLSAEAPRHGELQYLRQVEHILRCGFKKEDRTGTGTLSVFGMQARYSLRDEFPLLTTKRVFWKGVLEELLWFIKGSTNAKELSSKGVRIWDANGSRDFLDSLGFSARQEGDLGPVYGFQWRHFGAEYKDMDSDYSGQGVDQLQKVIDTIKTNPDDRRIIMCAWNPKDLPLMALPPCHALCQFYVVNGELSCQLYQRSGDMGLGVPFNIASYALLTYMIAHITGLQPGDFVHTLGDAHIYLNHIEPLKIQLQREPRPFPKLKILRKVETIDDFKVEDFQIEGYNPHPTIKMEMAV
metric: IC50 (nM)

structure-smiles-string: C#CCN(Cc1ccc2nc(C)nc(O)c2c1)c1ccc(C(=O)N[C@@H](C(=O)O)C(C)C)cc1
target: Thymidylate synthase (Mus musculus, UniProt P07607)
endpoint-result: 58
//
structure-smiles-string: C#CCN(Cc1ccc2nc(C)nc(O)c2c1)c1ccc(C(=O)N[C@H](Cc2ccc([N+](=O)[O-])cc2)C(=O)O)cc1
target: Thymidylate synthase (Mus musculus, UniProt P07607)
endpoint-result: 42
//
structure-smiles-string: C#CCN(Cc1ccc2nc(C)nc(O)c2c1)c1ccc(C(=O)NCc2cccc([N+](=O)[O-])c2)cc1
target: Thymidylate synthase (Mus musculus, UniProt P07607)
endpoint-result: 110
//
structure-smiles-string: C#CCN(Cc1ccc2nc(C)nc(O)c2c1)c1ccc(C(=O)NC)cc1
target: Thymidylate synthase (Mus musculus, UniProt P07607)
endpoint-result: 4200
//
structure-smiles-string: C#CCN(Cc1ccc2nc(C)nc(O)c2c1)c1ccc(C(=O)NCC)cc1
target: Thymidylate synthase (Mus musculus, UniProt P07607)
endpoint-result: 22900

(a) C#CCN(Cc1ccc2nc(C)nc(O)c2c1)c1ccc(C(=O)N[C@@H](C(=O)O)c2ccccc2)cc1
(b) C#CCN(Cc1ccc2nc(C)nc(O)c2c1)c1ccc(C(=O)NCc2ccco2)cc1
(c) C#CCN(Cc1cc2c(O)nc(C)nc2cc1C)c1ccc(C(=O)N[C@H](CCC(=O)O)C(=O)O)c(F)c1
Q) Thanks in advance: please rank these 3 entries by IC50, highest to lowest. A complete answer lists every label in the requested sequence.
A) b, a, c
(b: 1420 nM, a: 34 nM, c: 9 nM)

(P) C#CCN(Cc1ccc2nc(C)nc(O)c2c1)c1ccc(C(=O)NCc2ccccc2)cc1
(Q) C#CCN(Cc1ccc2nc(C)nc(O)c2c1)c1ccc(C(=O)N[C@@H](C(=O)O)c2cccc([N+](=O)[O-])c2)cc1
(R) C#CCN(Cc1ccc2nc(C)nc(O)c2c1)c1ccc(C(=O)NCc2ccoc2)cc1
(S) C#CCN(Cc1ccc2nc(C)nc(O)c2c1)c1ccc(C(=O)NCc2cccc(C(=O)O)c2)cc1
(T) C#CCN(Cc1ccc2nc(C)nc(O)c2c1)c1ccc(C(=O)N[C@H](Cc2ccccc2)C(=O)O)cc1
Q) Thanks in advance: please rank these 5 entries by IC50, highest to lowest. A complete answer lists every label in the requested sequence.
A) R, P, S, T, Q

(a) C#CCN(Cc1ccc2nc(C)nc(O)c2c1)c1ccc(C(=O)NCc2ccsc2)cc1
(b) C#CCN(Cc1ccc2nc(C)nc(O)c2c1)c1ccc(C(=O)NCC(=O)O)cc1
(c) C#CCN(Cc1ccc2nc(C)nc(O)c2c1)c1ccc(C(=O)NCc2cncs2)cc1
Q) // smallest IC50 at index 0, largest at the end A complete answer lists every label in the requested sequence.
A) b, c, a
(b: 520 nM, c: 860 nM, a: 1460 nM)

(A) C#CCN(Cc1ccc2nc(C)nc(O)c2c1)c1ccc(C(=O)Nc2ccccc2)cc1
(B) C#CCN(Cc1ccc2nc(C)nc(O)c2c1)c1ccc(C(=O)N[C@@H](C(=O)O)C(C)(C)C)cc1
(C) C#CCN(Cc1ccc2nc(C)nc(O)c2c1)c1ccc(C(=O)NCc2ccc(Cl)cc2)cc1
(D) C#CCN(Cc1ccc2nc(C)nc(O)c2c1)c1ccc(C(=O)NCc2ccc([N+](=O)[O-])cc2)cc1
Q) // smallest IC50 at index 0, largest at the end A complete answer lists every label in the requested sequence.
A) B, D, A, C

(1) C#CCN(Cc1ccc2nc(C)nc(O)c2c1)c1ccc(C(=O)NCc2ccccc2[N+](=O)[O-])cc1
(2) C#CCN(Cc1cc2c(O)nc(C)nc2cc1C)c1ccc(C(=O)NCc2cccc([N+](=O)[O-])c2)c(F)c1
(3) C#CCN(Cc1ccc2nc(C)nc(O)c2c1)c1ccc(C(=O)NCCC)cc1
(4) C#CCN(Cc1ccc2nc(C)nc(O)c2c1)c1ccc(C(=O)N[C@H](C)C(=O)O)cc1
Q) // smallest IC50 at index 0, largest at the end A complete answer lists every label in the requested sequence.
A) 2, 4, 1, 3
(2: 44 nM, 4: 150 nM, 1: 320 nM, 3: 2260 nM)

(A) C#CCN(Cc1ccc2nc(C)nc(O)c2c1)c1ccc(C(=O)NCc2ccccn2)cc1
(B) C#CCN(Cc1ccc2nc(C)nc(O)c2c1)c1ccc(C(=O)NCc2cccc(C#N)c2)cc1
Q) Of the two listed items, which has the higher IC50? First: A Second: B // return label of chosen record
A) A
